Ref: the SangsterLogP compilation

Quick list: logP per entry.
ENDPOINT NAME: logP

MOLECULE: COC(=O)NC1=NCC(c2ccccc2Br)N1 (stereo not drawn)
ENDPOINT NAME: logP
RESULT: 1.85
//
MOLECULE: NCCCCCCOc1cccc2ccccc12
ENDPOINT NAME: logP
RESULT: 2.06
//
MOLECULE: COC(=O)NC1=NCC(c2ccc(Cl)cc2)N1C (stereo not drawn)
ENDPOINT NAME: logP
RESULT: 2.17
//
MOLECULE: Cc1cc2n(c1C(=O)c1ccc(Cl)cc1)CCC2C(=O)O (stereo not drawn)
ENDPOINT NAME: logP
RESULT: 3.6
//
MOLECULE: COC(=O)NC1=NCC(c2cccc(Cl)c2)N1C (stereo not drawn)
ENDPOINT NAME: logP
RESULT: 2.1
//
MOLECULE: COc1ccc(C(=O)c2c(C)cc3n2CCC3C(=O)O)cc1 (stereo not drawn)
ENDPOINT NAME: logP
RESULT: 2.91
//
MOLECULE: COC(=O)NC1=NCC(c2ccc(C(C)C)cc2)N1 (stereo not drawn)
ENDPOINT NAME: logP
RESULT: 2.6
//
MOLECULE: O=c1c2ncn(COCCO)c2nc2[nH]c(-c3ccc4ccccc4c3)cn12
ENDPOINT NAME: logP
RESULT: 2.09
//
MOLECULE: CCOC(=O)NC1=NCC(c2ccccc2)N1C (stereo not drawn)
ENDPOINT NAME: logP
RESULT: 1.9
//
MOLECULE: COC(=O)NC1=NCC(c2ccccc2SC)N1C (stereo not drawn)
ENDPOINT NAME: logP
RESULT: 2.08
//
MOLECULE: NCCCCOc1cccc2ccccc12
ENDPOINT NAME: logP
RESULT: 1.25
//
MOLECULE: COC(=O)NC1=NCC(c2cccc(Cl)c2)N1 (stereo not drawn)
ENDPOINT NAME: logP
RESULT: 1.9
//
MOLECULE: COC(=O)NC1=NCC(c2cccc(OC)c2)N1C (stereo not drawn)
ENDPOINT NAME: logP
RESULT: 1.39
